System: IGROV1 ovarian
Assay: NCI tumour cell line growth inhibition, 48 h

| Compound | TGI |
| --- | --- |
| COc1ccccc1N=Nc1c(O)c(S(=O)(=O)O)cc2cc(S(=O)(=O)O)ccc12 | > 100 µM |
| Cc1nnc2n(c1=O)CCN2C | > 100 µM |
| CCCCCCCCCC(=O)N[C@@H](c1ccco1)[C@@H](O)C(=O)O[C@H]1C[C@@]2(O)[C@@H](OC(=O)c3ccccc3)[C@@H]3[C@]4(OC(C)=O)CO[C@@H]4C[C@H](O)[C@@]3(C)C(=O)[C@H](OC(C)=O)C(=C1C)C2(C)C | 16.1 µM |
| COc1ccc2c(c1)CC[C@@H]1C2CC[C@](C)(C#N)C1CC#N (some centres not stated) | > 100 µM |
| COC(=O)c1cc2c(cc1Cl)SC1=NN(C)S(=O)N1S2(=O)=O (configuration not stated) | > 100 µM |
| Oc1c(Cl)cc(Cl)c2ccc(Cn3cc(-c4cc(C(F)(F)F)cc(C(F)(F)F)c4)nn3)nc12 | 3.47 µM |
| C[S+](C)CC1OC(n2cnc3c(N)ncnc32)C(O)C1O (configuration not stated) | > 225 µM |

====

System: SN12C renal
Assay: NCI tumour cell line growth inhibition, 48 h
Form field: TGI (one value per entry).
Readout Label: TGI

| Molecule | Readout Label | Result Value |
| --- | --- | --- |
| CNc1ccc2ncccc2c1[N+](=O)[O-] | TGI | > 100 µM |
| Cc1cc(C)nc(/C(=N\NC(N)=O)C(=O)Nc2nc3ccc(C)cc3s2)c1 | TGI | > 100 µM |
| O=C(O)/C=C\C(=O)Nc1ccccn1 | TGI | > 100 µM |
| Cl/C(N=Nc1ccccc1)=N/Nc1ccccc1 | TGI | > 100 µM |
| NS(=O)(=O)c1ccc(N2N=C3c4ccccc4CC3C2c2cccs2)cc1 (stereo unspecified) | TGI | 48.9 µM |
| Cc1ccnc2nc(N)ccc12 | TGI | > 100 µM |
| c1cc(-c2nnc(SSc3ncnc4nc[nH]c34)o2)ccn1 | TGI | > 100 µM |
| COC(=O)C1=C(CS(=O)c2ccc([N+](=O)[O-])cc2[N+](=O)[O-])C2C=CC1C2 (stereo unspecified) | TGI | 50.2 µM |
| O=S(=O)(c1ccc(-c2nnc(-c3ccc(F)cc3)o2)cc1)c1ccc(-c2nnc(-c3ccc(F)cc3)o2)cc1 | TGI | > 100 µM |
| CN1CN(c2ccccc2)C2(CCN(CCCCCCF)CC2)C1=O | TGI | > 100 µM |
| COC(=O)c1c(C)cccc1C1CN=NC12Cc1ccc(C)c(C)c1C2=O (stereo unspecified) | TGI | > 100 µM |
| CC(C)=CCOc1cc(NC(=S)c2ccsc2C)ccc1Cl | TGI | > 100 µM |
| CCSCN(C)c1nc(N(C)C)nc(N(C)C)n1 | TGI | > 100 µM |
| COC(=O)CCc1c(Cc2ccc[nH]2)[nH]c(C(=O)OCc2ccccc2)c1C | TGI | 35.6 µM |
| COc1ccc(/C=C/C(=O)c2ccc(-n3cc(CN4CCN(c5cc6c(cc5F)c(=O)c(C(=O)O)cn6C5CC5)CC4)nn3)cc2)cc1OC | TGI | 10 µM |
| O=c1[nH]c(=O)n(COCCO)c2ccsc12 | TGI | > 100 µM |
| Oc1ccccc1C1C=C(c2ccccc2)NC(N2CCCCC2)=C1c1nc2ccccc2[nH]1 (stereo unspecified) | TGI | 29.7 µM |
| CCCCCN(CCCCC)CC(O)c1cc(Cl)ccc1OC (stereo unspecified) | TGI | 28.8 µM |
| NC(Cc1c[nH]c2cc([N+](=O)[O-])ccc12)C(=O)O (stereo unspecified) | TGI | > 100 µM |
| Cc1nc2ccc(Br)cc2c(=O)n1-c1ccc(NC2OCC(O)C(O)C2O)cc1 (stereo unspecified) | TGI | > 100 µM |
| CC(C)c1nc(N(C)S(C)(=O)=O)nc(-c2ccc(F)cc2)c1/C=C/[C@@H](O)C[C@@H](O)CC(=O)O | TGI | > 100 µM |
| Cc1ccc(N(O)C(C)(C)C)cc1 | TGI | > 100 µM |
| CCOc1ccc2c(c1)C(=O)c1c-2n(CCCBr)c(=O)c2cc([N+](=O)[O-])ccc12 | TGI | > 100 µM |
| CO[C@H]1O[C@@H]2CO[C@@H](c3ccccc3)O[C@H]2[C@@H]2C/C=C\CCC[C@@]12O | TGI | 32.5 µM |
| C#CCNC(=O)NCCCCC(NC(=O)OCc1ccccc1)C(=O)OCc1ccccc1 (stereo unspecified) | TGI | > 100 µM |
| CCOC(=O)C(C)Sc1nnc(COc2ccccc2OC)n1-c1ccccc1 (stereo unspecified) | TGI | > 100 µM |

====

Test system: HOP-92 NSCLC
Assay: NCI tumour cell line growth inhibition, 48 h
Form field: TGI (one value per entry).
Readout Label: TGI

| Molecule | Result Value |
| --- | --- |
| CC1(C)C2CCC3(OCCO3)C1C(O)C2 (stereo unspecified) | > 100 µM |
| CCc1cccc(C)c1NC(=O)CCc1nnc2s/c(=C\c3cccc4ccccc34)c(=O)n12 | > 100 µM |
| CCC(C)Oc1nc2c(c(=O)n(C)c(=O)n2C)n1C (stereo unspecified) | > 100 µM |
| O=C1C(=O)N(c2ccc(Cl)cc2)C(=O)C(=O)C1c1nc2ccccc2s1 | > 100 µM |
| CC(=O)NC1=C(NCCCl)C(=O)c2ccccc2C1=O | > 100 µM |
| CC1(C)CC2(C)CC1CC2(O)c1ccccc1 (stereo unspecified) | > 100 µM |
| O=CC(O)C(O)C(O)C1CNC(=S)O1 (stereo unspecified) | > 100 µM |
| C[Si](C)(C)C(CCCCSc1ccccc1)(Sc1ccccc1)Sc1ccccc1 | > 100 µM |
| COc1ccc(C(=O)c2cc3c(N)c(C(=O)Nc4ccccc4)sc3nc2C)cc1 | > 100 µM |
| COC(=O)c1c(C)cccc1C1CN=NC12Cc1ccc(C)c(C)c1C2=O (stereo unspecified) | > 100 µM |
| CCOC(=O)C(C)Sc1nnc(COc2ccccc2OC)n1-c1ccccc1 (stereo unspecified) | > 100 µM |
| CCCCCCCC(=O)OCCCC1[C@]2(C)CC[C@@]3(C)C([C@H](C)CCC=C(C)C)CC[C@]3(C)C2CC[C@]12OC2(C)C (stereo partly specified) | > 100 µM |
| Cn1c([C@H](C#N)C(=O)c2cc(O)ccc2[N+](=O)[O-])nc2ccccc21 | > 100 µM |
| Cl/C(N=Nc1ccccc1)=N/Nc1ccccc1 | > 100 µM |
| Nc1cccc(S(=O)(=O)Nc2nnc(S(N)(=O)=O)s2)c1 | > 100 µM |
| O=S(=O)(c1ccc(-c2nnc(-c3ccc(F)cc3)o2)cc1)c1ccc(-c2nnc(-c3ccc(F)cc3)o2)cc1 | > 100 µM |
| O=c1nc(-c2ccccc2)cc(CC(O)c2ccc(Cl)c(Cl)c2)[nH]1 (stereo unspecified) | > 100 µM |
| CCN(CC)CCCNC(=O)c1cc2cc(NC(=O)c3cc4cc([N+](=O)[O-])ccc4[nH]3)ccc2[nH]1 | > 100 µM |
| Cc1cc(C)nc(/C(=N\NC(N)=O)C(=O)Nc2nc3ccc(C)cc3s2)c1 | > 100 µM |
| COc1cc2ncnc(-n3ncc4cc(NC(=O)Nc5ccc(Cl)c(Cl)c5)ccc43)c2cc1OC | 4.19 µM |
| Cc1cccc2c1c1ccc3c(c1n2C)C(=O)C=CC3=O | 4.34 µM |
| C[Si](C)(c1ccc(C(=O)O)cc1)c1ccc(C(=O)O)cc1 | > 100 µM |
| COC(=O)C(CCC(=O)CCl)N1C(=O)c2ccccc2C1=O (stereo unspecified) | 12.1 µM |
| c1cc(-c2nnc(SSc3ncnc4nc[nH]c34)o2)ccn1 | > 100 µM |
| O=C(/C=C/c1ccc(C(F)(F)F)cc1)Nc1ccc(C=C2c3ccccc3C(=O)c3ccccc32)cc1 | 22.4 µM |
| N#C/C(=C\c1ccc([N+](=O)[O-])s1)c1nc2cc(Cl)ccc2s1 | 1.6 µM |

====

Test system: SF-268 CNS
Assay: NCI tumour cell line growth inhibition, 48 h
Readout Label: TGI (µM)

| Structure Smiles String | Readout Label | Sign | Result Value |
| --- | --- | --- | --- |
| CN1CN(c2ccccc2)C2(CCN(CCCCCCF)CC2)C1=O | TGI | > | 100 |
| COc1ccc(Nc2nc3ccccc3c3occc23)cc1 | TGI | = | 14.4 |
| O=S(=O)(O)c1cccc2cccc(N=Nc3c(O)ccc4ccccc34)c12 | TGI | > | 100 |
| N#C/C(=C\c1ccc([N+](=O)[O-])s1)c1nc2cc(Cl)ccc2s1 | TGI | > | 100 |
| CCCCCCCCOC(=O)c1c(C)[nH]c(/C=C2\N=C(c3ccc[nH]3)C=C2OC)c1C | TGI | = | 7.2 |

meta.source: PubChem BioAssay (NCI)
